# SYSTEM_UNDER_TEST: canine NPC1L1 (Canis lupus familiaris)
# ASSAY_EXPLANATION: Fluorescence NPC1L1 binding assay, HEK-293 cells, BODIPY-labeled compound 1
# CONDITION_CONTEXT: Table 3, Dog; read-out: Ki Dog NPC1L1
pKi: −log10 of the molar value.
PROPERTY: pKi

SMI	RESULT_VALUE
O=C1[C@H](CC[C@H](O)c2ccc(F)cc2)[C@@H](c2ccc(O)cc2)N1c1ccc(I)cc1	5.84

(P) O=C(O)[C@H]1O[C@@H](Oc2ccc([C@@H]3[C@@H](CC[C@H](O)c4ccc(F)cc4)C(=O)N3c3ccc(F)cc3)cc2)[C@H](O)[C@@H](O)[C@@H]1O
(Q) O=C(CS[C@H]1C(=O)N(c2ccc(F)cc2)[C@@H]1c1ccc(O)cc1)c1ccc(F)cc1
(R) O=C1[C@H](CC[C@H](O)c2ccc(F)cc2)[C@@H](c2ccc(O[C@@H]3O[C@H](CO)[C@@H](O[C@@H]4O[C@H](CO)[C@@H](O)[C@H](O)[C@H]4O)[C@H](O)[C@H]3O)cc2)N1c1ccc(F)cc1
(S) O=C1[C@H](CC[C@H](O)c2ccc(F)cc2)[C@@H](c2ccc(O)cc2)N1c1ccc(F)cc1
rank_up(items): orders items by reported pKi in ascending numerical order. When ranking, write the labels in the order the request describes.
Q, R, S, P
(Q: 5.64, R: 5.89, S: 6.11, P: 6.72)
